target: Full length LIGHT V196A on HEK293FF cells (Homo sapiens (Human), UniProt O43557 1-240)
Sequence (O43557 whole entry V196A): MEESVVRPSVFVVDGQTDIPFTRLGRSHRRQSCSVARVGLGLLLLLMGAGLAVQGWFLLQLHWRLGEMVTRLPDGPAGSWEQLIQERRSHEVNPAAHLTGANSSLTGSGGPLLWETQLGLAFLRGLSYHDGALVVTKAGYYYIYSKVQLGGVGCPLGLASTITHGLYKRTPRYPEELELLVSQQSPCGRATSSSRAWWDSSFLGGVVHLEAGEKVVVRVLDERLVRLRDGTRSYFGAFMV
runDescription: flow cytometry, HEK293FF, mAb at EC50
Where % of WT binding equals or exceeds 80%, the correct label is satisfied; where it does not, the label is not satisfied.

INPUT: Quick check, % of WT binding >= 80%? 2E08 chimeric IgG4 mAb (antibody, V domains shown, Chimeric human IgG4 (S-to-P, L-to-E) with human CL, as m1; also called Parental 2E08) VH: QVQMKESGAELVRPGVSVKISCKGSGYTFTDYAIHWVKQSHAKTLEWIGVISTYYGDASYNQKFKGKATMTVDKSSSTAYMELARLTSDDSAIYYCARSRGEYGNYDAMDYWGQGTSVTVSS VL: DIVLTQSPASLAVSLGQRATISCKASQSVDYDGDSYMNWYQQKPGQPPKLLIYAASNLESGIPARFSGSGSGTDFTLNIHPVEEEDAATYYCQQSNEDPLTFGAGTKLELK
OUTPUT: satisfied

INPUT: Try 2B11 chimeric IgG4 mAb (antibody, V domains shown, Chimeric human IgG4 (S-to-P, L-to-E) with human CL, as m1; Often misprinted 2B111; also called Parental 2B11; 2B111) VH: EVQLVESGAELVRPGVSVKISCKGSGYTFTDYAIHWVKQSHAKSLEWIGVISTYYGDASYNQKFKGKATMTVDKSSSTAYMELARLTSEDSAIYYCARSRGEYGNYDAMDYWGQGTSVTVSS VL: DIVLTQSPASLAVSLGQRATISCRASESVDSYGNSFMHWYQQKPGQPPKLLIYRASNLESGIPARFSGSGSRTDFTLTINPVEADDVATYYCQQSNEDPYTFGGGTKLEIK next.
OUTPUT: not satisfied

INPUT: Try 3A07 chimeric IgG4 mAb (antibody, V domains shown, Chimeric human IgG4 (S-to-P, L-to-E) with human CL, as m1; also called Parental 3A07) VH: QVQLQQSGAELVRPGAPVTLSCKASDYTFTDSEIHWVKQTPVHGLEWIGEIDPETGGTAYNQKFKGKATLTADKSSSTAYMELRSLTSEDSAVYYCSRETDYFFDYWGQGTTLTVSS VL: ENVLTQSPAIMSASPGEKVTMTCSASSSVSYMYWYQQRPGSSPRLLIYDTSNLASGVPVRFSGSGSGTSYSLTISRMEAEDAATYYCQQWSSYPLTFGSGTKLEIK next.
OUTPUT: not satisfied

INPUT: Try 3D12 chimeric IgG4 mAb (antibody, V domains shown, Chimeric human IgG4 (S-to-P, L-to-E) with human CL, as m1; also called Parental 3D12; 03D12) VH: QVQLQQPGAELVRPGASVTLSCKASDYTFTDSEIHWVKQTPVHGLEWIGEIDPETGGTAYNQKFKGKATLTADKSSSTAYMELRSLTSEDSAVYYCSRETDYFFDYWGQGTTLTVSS VL: DIQMTQSPASLSASVGETVTITCGASENIYGALNWYQRKQGKSPQLLIYGATNLADGMSSRFSGSGSGRQYSLKISSLHPDDVATYYCQNVLSTPWTFGGGTKLEIK next.
OUTPUT: not satisfied

INPUT: Try 3E09 chimeric IgG4 mAb (antibody, V domains shown, Chimeric human IgG4 (S-to-P, L-to-E) with human CL, as m1; also called Parental 3E09) VH: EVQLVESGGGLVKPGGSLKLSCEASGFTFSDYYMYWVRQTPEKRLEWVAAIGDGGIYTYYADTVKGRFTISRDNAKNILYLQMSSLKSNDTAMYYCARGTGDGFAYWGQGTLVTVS VL: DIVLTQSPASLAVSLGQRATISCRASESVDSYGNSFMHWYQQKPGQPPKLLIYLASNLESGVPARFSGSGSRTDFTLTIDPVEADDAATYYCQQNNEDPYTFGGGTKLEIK next.
OUTPUT: not satisfied
